meta.source: patent US11945807B2

test system: NCIH1568.1; assay: Payload cellular potency CTGlo-ATS 72 h, NCIH1568.1; format: cell-based; details: cell line #2, 72 h; corresponding free payload
Attribute measured: CTGlo-ATS GMean LD50 (nM) 72 h NCIH1568.1
The answer is to be given in nM; state only the numeric part.

For orientation, consider the following solved cases.
CC[C@H](O)[C@@H](C)[C@H]1O[C@@H]1C[C@@](C)(O)/C=C/C=C(\C)[C@H]1OC(=O)C[C@H](O)CC[C@@](C)(OC(=O)N2CCNCC2)[C@@H](OC(C)=O)/C=C/[C@@H]1C; 68.125
CC[C@H](O)[C@@H](C)C1OC1C[C@@](C)(O)/C=C/C=C(\C)[C@H]1OC(=O)C[C@H](O)CC[C@@](C)(OC)[C@@H](OC(=O)N2CCNCC2)/C=C/[C@@H]1C (stereo in doubt) [D1]; 65.737
CC[C@H](O)[C@@H](C)[C@H]1O[C@@H]1C[C@@](C)(O)/C=C/C=C(\C)[C@H]1OC(=O)C[C@H](O)CC[C@@](C)(O)[C@@H](OC(=O)N2CCNCC2)/C=C/[C@@H]1C; 1193.037

Shifting focus to the compound that follows.
Entry under test: CC[C@H](O)[C@@H](C)C1OC1C[C@@](C)(O)/C=C/C=C(\C)[C@H]1OC(=O)C[C@H](O)CC[C@@](C)(OC(C)=O)[C@@H](OC(=O)N2CCNCC2)/C=C/[C@@H]1C (stereo in doubt) . Its CTGlo-ATS GMean LD50 (nM) 72 h NCIH1568.1 was 45.485

###

Reported half-life at 20 μM values follow for various molecules
experiment: Chemical stability of ADC payload, pH 5.5 buffer; assay type: physicochemical; settings: McIlvaine (citrate-phosphate) buffer; unconjugated payload; Citrate-Phosphate buffer pH 5.5, 37° C., 20 μM; read-out: Stability Mean Stability t1/2 pH5.5 (converted)
The reply should be a number in h, with the unit left off.

Would you please look over these solved cases?
CC[C@H](O)[C@@H](C)[C@H]1O[C@@H]1C[C@@](C)(O)/C=C/C=C(\C)[C@H]1OC(=O)C[C@H](O)CC[C@@](C)(OC(=O)N2CCNCC2)[C@@H](OC(C)=O)/C=C/[C@@H]1C; 84.6
CC[C@H](O)[C@@H](C)C1OC1C[C@@](C)(O)/C=C/C=C(\C)[C@H]1OC(=O)C[C@H](O)CC[C@@](C)(OC)[C@@H](OC(=O)N2CCNCC2)/C=C/[C@@H]1C (stereo in doubt) [D1]; 94.8
CC[C@H](O)[C@@H](C)C1OC1C[C@@](C)(O)/C=C/C=C(\C)[C@H]1OC(=O)C[C@H](O)CC[C@@](C)(OC(C)=O)[C@@H](OC(=O)N2CCNCC2)/C=C/[C@@H]1C (stereo in doubt); 106
CC[C@H](O)[C@@H](C)[C@H]1O[C@@H]1C[C@@](C)(O)/C=C/C=C(\C)[C@H]1OC(=O)C[C@H](O)CC[C@@](C)(OC)[C@@H](OC(=O)N2CCN(C)CC2)/C=C/[C@@H]1C [D2]; 96
CC[C@H](O)[C@@H](C)[C@H]1O[C@@H]1C[C@@](C)(O)/C=C/C=C(\C)[C@H]1OC(=O)C[C@H](O)CC[C@@](C)(O)[C@@H](OC(=O)N2CCN(C3CCCCCC3)CC2)/C=C/[C@@H]1C; 90

Now examine the next entry.
Input CC[C@H](O)[C@@H](C)[C@H]1O[C@@H]1C[C@@](C)(O)/C=C/C=C(\C)[C@H]1OC(=O)C[C@H](O)CC[C@@](C)(OC)[C@@H](OC(=O)N2CCN(CCCC(=O)O)CC2)/C=C/[C@@H]1C . Output half-life at 20 μM: 120

###

Listed next: entries and their corresponding IC50.
target: SF3b complex (Homo sapiens, UniProt O75533+Q7RTV0); construct: The beads were suspended and added to the prepared nuclear extracts; endogenous in cells; host or cells: nuclear extracts; test: SF3B1 binding / scintillation proximity assay (SPA); details: unconjugated payload; [3H]-pladienolide B probe displacement; read-out: SPA-AT S GMean IC50 (nM) SF381 (WT) HELA.2
Reply with just the number (in nM).

Form field, IC50 with SF3b complex (Homo sapiens, UniProt O75533+Q7RTV0), item CC[C@H](O)[C@@H](C)[C@H]1O[C@@H]1C[C@@](C)(O)/C=C/C=C(\C)[C@H]1OC(=O)C[C@H](O)CC[C@@](C)(OC)[C@@H](OC(=O)N2CCN(C)CC2)/C=C/[C@@H]1C [D2] : 15.5

Log: SF3b complex (Homo sapiens, UniProt O75533+Q7RTV0), molecule C/C(=C\c1cc(F)cc(N2CCOCC2)c1)[C@H]1OC(=O)C[C@H](O)CC[C@H](C)[C@@H](OC(=O)N2CCN(C)CC2)/C=C/[C@@H]1C , IC50 = 1.82

Reported SF3b complex (Homo sapiens, UniProt O75533+Q7RTV0) IC50 for item CC[C@H](O)[C@@H](C)C1OC1C[C@@](C)(O)/C=C/C=C(\C)[C@H]1OC(=O)C[C@H](O)CC[C@@](C)(OC)[C@@H](OC(=O)N2CCNCC2)/C=C/[C@@H]1C (stereo in doubt) [D1] was 6.08

###

test: Caco-2 permeability of ADC payload; type: in vitro ADME; conditions: human, Caco-2, unconjugated payload; apical to basolateral, 2 hours; read-out: Permeability Mean Caco-2 A-B Perm (10e−6 cm/s)
Attribute measured: Papp A→B at 2 h, 10 NM (×10⁻⁶ cm/s)
Give a bare numeral; the unit ×10⁻⁶ cm/s is implied.

C/C(=C\c1cc(F)cc(N2CCN(CC(=O)O)CC2)c1)[C@H]1OC(=O)C[C@H](O)CC[C@H](C)[C@@H](OC(=O)N2CCNCC2)/C=C/[C@@H]1C; 0.13
CC[C@H](O)[C@@H](C)C1OC1C[C@@](C)(O)/C=C/C=C(\C)[C@H]1OC(=O)C[C@H](O)CC[C@@](C)(OC)[C@@H](OC(=O)N2CCNCC2)/C=C/[C@@H]1C (stereo in doubt) [D1]; 0.14
CC(=O)N1CCC(n2nnc3c(F)cc(/C=C(\C)[C@H]4OC(=O)C[C@H](O)CC[C@H](C)[C@@H](OC(=O)N5CCN(C)CC5)/C=C/[C@@H]4C)cc32)CC1; 3.43
CC[C@H](O)[C@@H](C)[C@H]1O[C@@H]1C[C@@](C)(O)/C=C/C=C(\C)[C@H]1OC(=O)C[C@H](O)CC[C@@](C)(OC(=O)N2CCNCC2)[C@@H](OC(C)=O)/C=C/[C@@H]1C; 0.128
CC[C@H](O)[C@@H](C)[C@H]1O[C@@H]1C[C@@](C)(O)/C=C/C=C(\C)[C@H]1OC(=O)C[C@H](O)CC[C@@](C)(O)[C@@H](OC(=O)N2CCN(C3CCCCCC3)CC2)/C=C/[C@@H]1C; 0.87
CC[C@H](O)[C@@H](C)[C@H]1O[C@@H]1C[C@@](C)(O)/C=C/C=C(\C)[C@H]1OC(=O)C[C@H](O)CC[C@@](C)(OC)[C@@H](OC(=O)N2CCNC(CCC(=O)O)C2)/C=C/[C@@H]1C (stereo partly shown); 0.14

Next:
Query C/C(=C\c1cc(F)cc(N2CCOCC2)c1)[C@H]1OC(=O)C[C@H](O)CC[C@H](C)[C@@H](OC(=O)N2CCN(C)CC2)/C=C/[C@@H]1C yields Papp A→B at 2 h, 10 NM of 20.2

###

Below, each entry is listed with its recorded pH 5.5 Stability (t1/2, 37 C.).
experiment: Chemical stability of ADC payload, pH 5.5 buffer; format: physicochemical; settings: pH 5.5, 37 C.; corresponding payload
Please give the numeric answer without any surrounding text.

CC[C@H](O)[C@@H](C)[C@H]1O[C@@H]1C[C@@](C)(O)/C=C/C=C(\C)[C@H]1OC(=O)C[C@H](O)CC[C@@](C)(OC)[C@@H](OC(=O)N2CCN(C)CC2)/C=C/[C@@H]1C [D2]; 4
CC[C@H](O)[C@@H](C)[C@H]1O[C@@H]1C[C@@](C)(O)/C=C/C=C(\C)[C@H]1OC(=O)C[C@H](O)CC[C@@](C)(OC)[C@@H](OC(=O)N2CCN(CCCC(=O)O)CC2)/C=C/[C@@H]1C [D25]; 3.4
CC[C@H](O)[C@@H](C)C1OC1C[C@@](C)(O)/C=C/C=C(\C)[C@H]1OC(=O)C[C@H](O)CC[C@@](C)(OC(C)=O)[C@@H](OC(=O)N2CCNCC2)/C=C/[C@@H]1C (stereo in doubt) [D4]; 4.5
C/C(=C\c1cc(F)cc(N2CCN(C(=O)Cn3cccn3)CC2)c1)[C@H]1OC(=O)C[C@H](O)CC[C@H](C)[C@@H](OC(=O)N2CCNCC2)/C=C/[C@@H]1C [D16]; 7
C/C(=C\c1cc(F)cc(N2CCOCC2)c1)[C@H]1OC(=O)C[C@H](O)CC[C@H](C)[C@@H](OC(=O)N2CCN(C)CC2)/C=C/[C@@H]1C [D17]; 7

Consider CC(=O)N1CCC(n2nnc3c(F)cc(/C=C(\C)[C@H]4OC(=O)C[C@H](O)CC[C@H](C)[C@@H](OC(=O)N5CCN(C)CC5)/C=C/[C@@H]4C)cc32)CC1 [D15] . Its measured pH 5.5 Stability (t1/2, 37 C.) is 7

// C/C(=C\c1cccc(S(=O)(=O)N2CCCC2)c1)[C@H]1OC(=O)C[C@H](O)CC[C@H](C)[C@@H](OC(=O)N2CCN(C)CC2)/C=C/[C@@H]1C [D34] : pH 5.5 Stability (t1/2, 37 C.) value = 7

GET /value?item= CC[C@H](O)[C@@H](C)[C@H]1O[C@@H]1C[C@H](C)/C=C/C=C(\C)[C@H]1OC(=O)C[C@H](O)CC[C@@](C)(OC)[C@@H](OC(=O)N2CCN(C)CC2)/C=C/[C@@H]1C [D19] &field=pH 5.5 Stability (t1/2, 37 C.) returns 0.8
